Target: NR2F6 (Homo sapiens, UniProt P10588)
Construct: expressed in transfected cells; also transient transfection
Sequence (P10588 1-404): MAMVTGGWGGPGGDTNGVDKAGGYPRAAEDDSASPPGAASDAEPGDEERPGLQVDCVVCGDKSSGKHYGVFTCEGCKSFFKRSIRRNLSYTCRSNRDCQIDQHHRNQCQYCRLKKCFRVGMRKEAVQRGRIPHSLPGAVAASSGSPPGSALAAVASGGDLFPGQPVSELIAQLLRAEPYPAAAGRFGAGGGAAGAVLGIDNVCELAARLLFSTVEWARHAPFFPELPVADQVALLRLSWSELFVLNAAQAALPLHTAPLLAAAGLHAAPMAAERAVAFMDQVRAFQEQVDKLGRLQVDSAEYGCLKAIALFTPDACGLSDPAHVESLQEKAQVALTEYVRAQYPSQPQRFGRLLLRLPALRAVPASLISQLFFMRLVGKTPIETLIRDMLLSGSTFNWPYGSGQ
Test: NR2F6 agonist screening, Firefly signal cmpd/DMSO
Type: cell-based
Details: Table 15; 2 uM
Labelling field: enter 1.0 if recorded Firefly F4, cmpd/DMSO (mean) is less than 1. Enter 0.0 if it equals or exceeds that cut-off.

>  <compound>
CCOC(=O)c1cnc2c(C)cc(C)cc2c1NCCCO [Compound Z70]

>  <category_label>
0.0

$$$$
>  <compound>
CCOC(=O)c1cnc2c(C)cc(C)cc2c1NCc1ccc(Cl)cc1 [Compound Z75]

>  <category_label>
1.0

$$$$
>  <compound>
CCOC(=O)c1cnc2c(C)cc(C)cc2c1NCCCN1CCCCC1 [Compound Z17]

>  <category_label>
0.0

$$$$
>  <compound>
CCOC(=O)c1cnc2c(C)cc(C)cc2c1N1CCC(N(C)C)CC1 [Compound Z68]

>  <category_label>
0.0

$$$$
>  <compound>
COc1cccc(-c2noc(Cn3ncc(Cl)cc3=O)n2)c1 [Compound Z4]

>  <category_label>
0.0

$$$$
>  <compound>
CCOC(=O)c1cnc2c(C)cc(C)cc2c1N1CCC(O)CC1 [Compound Z78]

>  <category_label>
0.0

$$$$
>  <compound>
CCOC(=O)c1cnc2c(C)cc(C)cc2c1NCCCN1CCCCC1 [Compound Z11]

>  <category_label>
0.0

$$$$
>  <compound>
CCOC(=O)c1cnc2c(C)cc(C)cc2c1NCCCOC [Compound Z71]

>  <category_label>
1.0

$$$$
>  <compound>
CCOC(=O)c1cnc2c(C)cc(C)cc2c1NCCCN1CCCCC1 [Compound Z10]

>  <category_label>
0.0

$$$$
